experiment: Cycloheximide Counterscreen for Small Molecule Inhibitors of Shiga Toxin; further: read at 38.3 µM for the half of the compounds with a filed dose
run_conditions: cell reporter, cycloheximide protein synthesis inhibition counterscreen
The campaign covered roughly 300,000 compounds. About 37,000 (12%) were called active. No stated cut-off is given here; in the data, active means max response mostly above about 13% (no sharp cut-off); inactive means mostly below about 14%. This excerpt belongs to a sample that is enriched for actives.
Choose the fitting class; nothing outside active, inactive is accepted.

Worked cases, answers included:
compound: CN(CC(=O)NCc1ccncc1)S(=O)(=O)c1ccc(Br)cc1
assigned_label: inactive

compound: COCCn1c(=O)[nH]c(=O)c2cc(C(=O)c3cc(OC)ccc3O)cnc21
assigned_label: inactive

compound: CC(=O)c1ccc(S(=O)(=O)N2CCC(Oc3ccc(-n4cnnn4)cc3)CC2)cc1
assigned_label: inactive

compound: CC(C)(C)OC(=O)NC(Cc1ccccc1)C(=O)NC(CSC1CCCCO1)C(=O)NN (configuration not stated)
assigned_label: inactive

compound: Cc1snc(SCc2c(F)cccc2Cl)c1C#N
assigned_label: inactive

Identify the outcome logged in this assay for the compound shown: COc1ccc(O)c(C(=O)c2cnc3c(c2)c(-c2ccc(F)cc2)c(C#N)c(=O)n3C)c1
inactive

Here is the next compound: Cc1cccc(N(C)C(=O)c2cc(S(=O)(=O)N3CCCCC3)c[nH]2)c1
inactive

Here is the next compound: CN1CCN(c2ncc3c(n2)CC(c2ccccc2F)CC3=O)CC1 (configuration not stated)
inactive
